- experimental-target: T1, PACAP-R3 (human, UniProt P41587 24-438)
- T1 sequence (looked up): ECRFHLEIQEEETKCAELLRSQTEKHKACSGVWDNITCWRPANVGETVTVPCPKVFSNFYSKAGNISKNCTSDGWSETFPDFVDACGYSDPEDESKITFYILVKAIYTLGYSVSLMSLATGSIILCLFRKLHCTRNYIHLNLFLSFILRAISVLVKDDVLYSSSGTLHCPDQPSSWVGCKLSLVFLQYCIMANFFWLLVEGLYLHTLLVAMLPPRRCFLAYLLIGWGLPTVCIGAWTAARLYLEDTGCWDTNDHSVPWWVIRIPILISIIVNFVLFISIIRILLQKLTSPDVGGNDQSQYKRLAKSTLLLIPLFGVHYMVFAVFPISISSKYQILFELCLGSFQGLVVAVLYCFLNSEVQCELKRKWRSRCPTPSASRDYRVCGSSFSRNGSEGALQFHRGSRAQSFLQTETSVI
- assay-protocol: cell-based or functional assay
The reader will find reported R3 Selectivity values listed item by item below.
Reply briefly: the number, and no unit.

HSDAVFTDNYTRLRKQMAAKKYLNSIVNKR [R3P131] :: 70

Query binder follows.
R3 Selectivity for HSDAVFTDNYTRLRKQMAQKKYLNSIKNKR [R3P109] ? 100

The measurements presented in this section are drawn from patent US6972319B1.
